All values here come from patent US20230339834A1.

Assay type: physicochemical
Label Not met if Boiling Point falls below 200 °C; label Met in every other case.

compound=FC(F)(F)C(=C(Oc1ccc(Cl)cc1)C(F)(F)C(F)(F)F)C(F)(F)F group_label="Not met"
compound="F/C(=C(/C(F)(F)F)C(F)(Oc1cc(Cl)cc(Cl)c1)C(F)(F)C(F)(F)F)C(F)(C(F)(F)F)C(F)(F)F (stereo not drawn)" group_label=Met
compound="F/C(=C(/C(F)(F)F)C(F)(Oc1ccc(Cl)cc1)C(F)(F)C(F)(F)F)C(F)(C(F)(F)F)C(F)(F)F (stereo not drawn)" group_label=Met
compound=FC(F)(F)C(=C(Oc1ccccc1)C(F)(F)C(F)(F)F)C(F)(F)F group_label="Not met"

* * *

assay.remarks: Liquid dielectric breakdown strength (ASTM D877-87)
Format: physicochemical
settings: 2.5 mm gap, 60 Hz
assay.metric: Dielectric strength (kV)

compound="FC(F)(F)C(=C(Oc1ccccc1)C(F)(F)C(F)(F)F)C(F)(F)F [CE2]" assay_metric="Dielectric strength" observed_value=31.1
compound="F/C(=C(/C(F)(F)F)C(F)(Oc1ccc(F)cc1)C(F)(F)C(F)(F)F)C(F)(C(F)(F)F)C(F)(F)F (centres unmarked) [CE3]" assay_metric="Dielectric strength" observed_value=38.1
compound="F/C(=C(/C(F)(F)F)C(F)(Oc1ccccc1)C(F)(F)C(F)(F)F)C(F)(C(F)(F)F)C(F)(F)F (centres unmarked) [CE1]" assay_metric="Dielectric strength" observed_value=38.1
compound="FC(F)(F)C(=C(Oc1ccc(Cl)cc1)C(F)(F)C(F)(F)F)C(F)(F)F [Ex. 2]" assay_metric="Dielectric strength" observed_value=50.7
compound="F/C(=C(/C(F)(F)F)C(F)(Oc1ccc(Cl)cc1)C(F)(F)C(F)(F)F)C(F)(C(F)(F)F)C(F)(F)F (centres unmarked) [Ex. 1]" assay_metric="Dielectric strength" observed_value=46.6

* * *

assay.remarks: Density (DDM 2911 plus Automatic Density Meter)
Assay type: physicochemical
assay.metric: Density at 25° C. (g/mL)

compound="F/C(=C(/C(F)(F)F)C(F)(Oc1ccc(Cl)cc1)C(F)(F)C(F)(F)F)C(F)(C(F)(F)F)C(F)(F)F (stereo not drawn)" assay_metric="Density at 25° C." observed_value=1.65
compound="F/C(=C(/C(F)(F)F)C(F)(Oc1ccccc1)C(F)(F)C(F)(F)F)C(F)(C(F)(F)F)C(F)(F)F (stereo not drawn)" assay_metric="Density at 25° C." observed_value=1.62
compound=FC(F)(F)C(=C(Oc1ccccc1)C(F)(F)C(F)(F)F)C(F)(F)F assay_metric="Density at 25° C." observed_value=1.51
compound="F/C(=C(/C(F)(F)F)C(F)(Oc1ccc(F)cc1)C(F)(F)C(F)(F)F)C(F)(C(F)(F)F)C(F)(F)F (stereo not drawn)" assay_metric="Density at 25° C." observed_value=1.68
compound=FC(F)(F)C(=C(Oc1ccc(Cl)cc1)C(F)(F)C(F)(F)F)C(F)(F)F assay_metric="Density at 25° C." observed_value=1.58
compound="F/C(=C(/C(F)(F)F)C(F)(Oc1cc(Cl)cc(Cl)c1)C(F)(F)C(F)(F)F)C(F)(C(F)(F)F)C(F)(F)F (stereo not drawn)" assay_metric="Density at 25° C." observed_value=1.70

* * *

assay.remarks: Log KOW octanol/water partition coefficient by HPLC (OECD 117)
Type: physicochemical
settings: HPLC method
Below, each entry is listed with its recorded Log Kow.
assay.metric: Log Kow

molecule="F/C(=C(/C(F)(F)F)C(F)(Oc1ccc(Cl)cc1)C(F)(F)C(F)(F)F)C(F)(C(F)(F)F)C(F)(F)F (stereo not shown) [Ex. 1]" observed_value=>6.4
molecule="F/C(=C(/C(F)(F)F)C(F)(Oc1ccccc1)C(F)(F)C(F)(F)F)C(F)(C(F)(F)F)C(F)(F)F (stereo not shown) [CE1]" observed_value=>6.4
molecule="FC(F)(F)C(=C(Oc1ccccc1)C(F)(F)C(F)(F)F)C(F)(F)F [CE2]" observed_value=5.5
molecule="F/C(=C(/C(F)(F)F)C(F)(Oc1ccc(F)cc1)C(F)(F)C(F)(F)F)C(F)(C(F)(F)F)C(F)(F)F (stereo not shown) [CE3]" observed_value=>6.4
